tested on: NCI/ADR-RES ovarian; experiment: NCI tumour cell line growth inhibition, 48 h
property label: TGI

Worked cases, TGI given:
N#C/C(=C\c1cccc2cnccc12)N1N=NC2C=CC=CC21 (centres undefined) ... > 100 µM
O=C(CCc1ccc(O)cc1)NCCCNC(=O)CCc1ccc(O)cc1 ... > 100 µM
CC(C)(C)OC(=O)NCCCCCCCCCCn1c2c(c3ccccc3c1=O)C(=O)c1ccccc1-2 ... > 100 µM
CC(=O)N(C(C)=O)n1nc2c(n1)C(=O)c1ccccc1C2=O ... > 100 µM
O=C(Nc1cccc(-n2cc(-c3ccncc3)c(-c3ccc(O)c(Cl)c3)n2)c1)c1ccc(Cl)c(Cl)c1 ... 65.5 µM
CCOP(C)(=O)/C(Cc1ccc(OC)c(OC)c1)=N\O (centres undefined) ... > 100 µM
CCCCCCCCCCCCCCCCOc1ccc(/C=C/C2=[N+](CCCl)CCO2)cc1 ... > 100 µM
COc1ccc(/C=C2\CN(C)CC3C2=NN(c2ccccc2)C3c2ccc(OC)cc2)cc1 (centres undefined) ... > 100 µM

The record that follows has no TGI shown yet.
Quick check: TGI of CC[C@H]1C=CCC[C@@]2(C[C@@H]3CC[C@@H]4[C@H](C(=O)OCCCCCCCCCCCCCCCC(=O)N(CCCNC(C)=O)C[C@H](CCNC(C)=O)OC(C)=O)[C@]5(CCC[C@@H](C)O5)NC(=[N+]34)N2)O1 ?
8.18 µM

Data credit: PubChem BioAssay (NCI)
